- Target Or System: full length recombinant Pim-1 (Homo sapiens (Human))
- Sequence (P11309 whole entry): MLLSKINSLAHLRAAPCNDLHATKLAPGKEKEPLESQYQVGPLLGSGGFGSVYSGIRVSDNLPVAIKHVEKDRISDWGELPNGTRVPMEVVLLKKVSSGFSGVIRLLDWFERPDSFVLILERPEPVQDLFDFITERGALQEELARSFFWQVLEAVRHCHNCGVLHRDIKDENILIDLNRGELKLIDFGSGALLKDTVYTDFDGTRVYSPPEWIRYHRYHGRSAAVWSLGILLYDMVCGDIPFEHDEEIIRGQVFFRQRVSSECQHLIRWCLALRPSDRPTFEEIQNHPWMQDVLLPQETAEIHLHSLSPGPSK
- Assay Procedure: Pim enzyme assay (HTRF, phosphorylation of biotinylated-BAD (S112) peptide), Pim-1
- Format: biochemical
- Measurement Parameters: Pim-1 enzyme assay; read-out: Pim_1_IC50
pIC50: −log10 of the molar value.
Readout Name: pIC50

Compound: CNc1nnc(-c2ccc3[nH]cc(-c4cccc(OC(C)C)n4)c3c2)o1
Readout Name: pIC50
Number: 8.19
//
Compound: Nc1cncc(-c2c[nH]c3ccc(-c4nnc(N)s4)cc23)n1
Readout Name: pIC50
Number: 6.85
//
Compound: CC(C)Oc1ccc(F)c(-c2c[nH]c3ccc(-c4nnc(N)o4)cc23)c1
Readout Name: pIC50
Number: 7.23
//
Compound: CNc1nnc(-c2ccc3[nH]cc(-c4nccc(N5CCCCC5)n4)c3c2)s1
Readout Name: pIC50
Number: 7.07
//
Compound: COc1ccnc(-c2c[nH]c3ccc(-c4nnc(NC(C)C)o4)cc23)n1
Readout Name: pIC50
Number: 7.52
//
Compound: CC(C)Nc1nnc(-c2ccc3[nH]cc(-c4nc(C(=O)O)cc(C5CC5)n4)c3c2)o1
Readout Name: pIC50
Number: 7.70
//
Compound: CC1CCN(c2cncc(-c3c[nH]c4ccc(-c5nnc(N)s5)cc34)n2)CC1
Readout Name: pIC50
Number: 7.90
//
Compound: CC(C)Nc1nnc(-c2ccc3[nH]cc(-c4nccc(OC5CCCN(C)C5)n4)c3c2)o1 (centres unmarked) [Example 62, 2,2,2-trifluoroacetate]
Readout Name: pIC50
Number: 7.16
//
Compound: CCN(C)c1cnc(-c2c[nH]c3ccc(-c4nnc(N)s4)cc23)cn1
Readout Name: pIC50
Number: 6.40
//
Compound: CNc1nnc(-c2ccc3[nH]cc(-c4nccc(N5CCN(C)CC5)n4)c3c2)s1
Readout Name: pIC50
Number: 7.96
//
Compound: Nc1nnc(-c2ccc3[nH]cc(-c4cccc(O)n4)c3c2)s1
Readout Name: pIC50
Number: 5.68
//
Compound: N[C@H]1CCN(c2nnc(-c3ccc4[nH]cc(-c5ccccc5F)c4c3)s2)C1 (stereo in doubt)
Readout Name: pIC50
Number: 7.14
//
Compound: Nc1nnc(-c2ccc3[nH]cc(-c4c(F)cccc4F)c3c2)s1
Readout Name: pIC50
Number: 6.70
//
Compound: C[C@H]1CCCN(c2ccnc(-c3c[nH]c4ccc(-c5nnc(N)o5)cc34)n2)C1 (stereo in doubt)
Readout Name: pIC50
Number: 8.26
//
Compound: CC1CCN(c2cccc(-c3c[nH]c4ccc(-c5nnc(N)s5)cc34)n2)CC1
Readout Name: pIC50
Number: 7.38
//
Compound: CC(C)Nc1nnc(-c2ccc3[nH]cc(-c4nc(C(N)=O)cc(C5CC5)n4)c3c2)o1
Readout Name: pIC50
Number: 8.60
//
Compound: Cc1ccccc1-c1ccnc(-c2c[nH]c3ccc(-c4nnc(N)o4)cc23)n1
Readout Name: pIC50
Number: 7.55
//
Compound: CN1CCN(c2cncc(-c3c[nH]c4ccc(-c5nnc(N)s5)cc34)n2)CC1=O
Readout Name: pIC50
Number: 7.80
//
Compound: CC(C)(Nc1nnc(-c2ccc3[nH]cc(-c4ncccn4)c3c2)o1)c1ccccc1 [Example 52, 2,2,2-trifluoroacetate]
Readout Name: pIC50
Number: 7.15
//
Compound: CNc1nnc(-c2ccc3[nH]cc(-c4cccc(F)n4)c3c2)s1
Readout Name: pIC50
Number: 5.99
//
Compound: Nc1nnc(-c2ccc3[nH]cc(-c4cccc(F)c4F)c3c2)o1
Readout Name: pIC50
Number: 6.99
//
Compound: CNc1nnc(-c2ccc3[nH]cc(-c4cccnc4)c3c2)s1
Readout Name: pIC50
Number: 6.20
//
Compound: CC(C)Oc1cccc(-c2c[nH]c3ccc(-c4nnc(N5CC[C@H](N)C5)s4)cc23)n1 [Example 34, 2,2,2-trifluoroacetate]
Readout Name: pIC50
Number: 7.98
//
Compound: CNc1nnc(-c2ccc3[nH]cc(-c4cn[nH]c4)c3c2)s1
Readout Name: pIC50
Number: 6.62
//
Compound: Nc1nnc(-c2ccc3[nH]cc(-c4cncc(Oc5ccccc5)n4)c3c2)o1
Readout Name: pIC50
Number: 7.59
//
Compound: N#Cc1cccc(-c2c[nH]c3ccc(-c4nnc(N)s4)cc23)n1
Readout Name: pIC50
Number: 6.81
//
Compound: Nc1nnc(-c2ccc3[nH]cc(-c4cncc(NC5CCCCC5)n4)c3c2)s1
Readout Name: pIC50
Number: 8.50
//
Compound: Nc1nnc(-c2ccc3[nH]cc(-c4cccc(-n5cccn5)n4)c3c2)o1
Readout Name: pIC50
Number: 7.92
//
Compound: Nc1nnc(-c2ccc3[nH]cc(-c4cccc(OC5CCCCC5)n4)c3c2)s1
Readout Name: pIC50
Number: 7.39

Where do these numbers come from? They come from patent US9321756B2.
